Experiment: A549 NSCLC cell proliferation inhibitors – ATP luminescence, human non-small cell lung line, primary screen (AID 371);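 also: compound exposure lasted 72 h before the ATP read; 0% = untreated cell signal and 100% = no luminescence left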
Conditions: at 10 µM, hits give high values
In all, about 3,300 compounds went through this assay and about 280 (8.5%) were called active. Only a selection was taken, and actives are over-represented in it overall.

| molecule | growth inhibition (%) |
| --- | --- |
| Clc1ccc(-c2nnc3sc(Cc4cccs4)nn23)cc1 | 15 |
| COC(=O)c1ccc(Cn2nnc3c(sc4nc(N5CCOCC5)c5c(c43)CCCC5)c2=O)o1 | 3.34 |
| CCOc1ccc(C2C(C#N)=C(N)Oc3cc(C)n(CCN4CCOCC4)c(=O)c32)cc1OCC (stereo not given) | 1.16 |
| CN(C)C(CN1C(=O)C2CC=CCC2C1=O)c1cn(C)c2ccccc12 (stereo not given) | -4.21 |
| CCCc1cc(C(=O)Cc2ccc(F)cc2)c(O)cc1O | 89.5 |
| COc1cccc(-c2nnc3sc(-c4ccccc4)nn23)c1 | 8.34 |
| CCC(CC)n1[nH]c(=O)cc1N | 1.19 |
| c1ccc2c(NCC3CCCO3)nc(-c3ccncc3)nc2c1 (stereo not given) | 13.1 |
| COc1ccc(-c2ncncc2-c2csc(C)n2)c(O)c1 | 3.39 |
| O=C(NCc1ccco1)c1ccc(=O)oc1 | -3.09 |
| Cc1cccn2c(=O)c3cc(C(N)=S)c(=N)n(CCCOC(C)C)c3nc12 | 51.3 |
| CSc1nc2[nH]c3c(c2c2ncnn12)CCCC3 | 38.4 |
| O=C1c2ccccc2-c2onc3ccc(NCc4ccco4)c1c23 | 50.2 |
| COc1ccc(-c2onc(C)c2-c2ccccc2)c(O)c1 | 52.1 |
| COC(=O)c1cc2c(=O)n3cccc(C)c3nc2n(Cc2cccnc2)c1=N | 2.48 |
| COc1ccc2[nH]cc(C(=O)CN(C)CCc3ccc(OC)c(OC)c3)c2c1 | 15.3 |
| COc1ccc(C(=O)N2CCCC(c3ccccc3)C2)cc1 (stereo not given) | 19 |
| Cc1c(O)c(CN2CCCC2)cc2c1oc(=O)c1ccccc12 | 9.98 |
| CN(C)CCCOC(=O)c1ccc(Cl)cc1Cl | 5.84 |
| CCCN(CCC)C(=O)CC(c1ccc(F)cc1)c1ccco1 (stereo not given) | 38.5 |
| CCOC(=O)c1cc2c(=O)n3cccc(C)c3nc2n(CCc2ccccc2)c1=N | 16.5 |
| Cc1ccc(CNC(=O)c2cc3c(=O)n4ccccc4nc3n(Cc3ccco3)c2=N)cc1 | 92.5 |
| COc1cccc(COc2nc3c(c(=O)n(C)c(=O)n3C)n2C)c1 | 29.5 |
| O=C(NCc1ccco1)c1ccc(=O)[nH]n1 | -4.07 |
| Cn1ncc2c(Nc3ccccc3Br)ncnc21 | 4.98 |
| CCc1oc2ccccc2c1C(=O)c1cc(Br)c(O)c(Br)c1 | 67.4 |
| Cc1cc(OCC(=O)Nn2cnnc2)ccc1Br | 4.24 |
| CCNC(=O)c1cc2c(=O)n3cccc(C)c3nc2n(CCc2ccccc2)c1=N | 70.5 |
| CN1CCN(C2=Nc3cc(Cl)ccc3Nc3ccccc32)CC1 | 26 |
| COC(=O)NCC12CC3CC(C1)CC(CNC(=O)OC)(C3)C2 | 2.32 |
| Cc1cc(C)n2c3c(c(C#N)c2n1)CC(C)(C)OC3 | 5.01 |
| CCCC1C2C(=O)N(c3ccccc3OC)C(=O)C2ON1c1ccccc1 (stereo not given) | 5.99 |
| c1ccc(-c2nnc3sc(Cc4cccs4)nn23)cc1 | 21.9 |
| CN(C)CCCN1c2ccccc2Sc2ccc(C(F)(F)F)cc21 | 90.7 |
| COc1ccc(CN(C#N)c2nc(SC)nc(N(C)C)n2)cc1 | 32.9 |
| CN(C)CCCN1c2ccccc2Sc2ccc(Cl)cc21 | 92.2 |
| Cc1ccc(S(=O)(=O)c2cc3c(=O)n4ccccc4nc3n(C)c2=N)cc1 | -2.02 |
| O=C(O)c1cnn2c(C(F)(F)F)cc(-c3ccco3)nc12 | -1.5 |
| CCCSc1nnc2n(-c3ccccc3OC)c(=O)c3c4c(sc3n12)CCC4 | 15.6 |
| COc1ccc(-c2oc3ncn4nc(COc5ccccc5)nc4c3c2-c2ccc(OC)cc2)cc1 | 10.6 |
